protocol: Efflux ratio of permeability from basolateral to apical to apical to basolateral side in human 21 days cultured Caco-2 cells
Assay type: ADME, cell-based
quantityMeasured: efflux ratio

[I] CCCCC1N(CC2CCOCC2)C(=O)OC12CCN(C1(C)CCN(C(=O)c3c(C)ncnc3C)CC1)CC2 (configuration not stated)
[II] CCCCC1N(CC2CCCCC2)C(=O)OC12CCN(C1(C)CCN(C(=O)c3c(C)cccc3C)CC1)CC2 (configuration not stated)
Problem: Which entry shows the lesser value of efflux ratio here, I or II ? # reply format: chosen label
Solution: II
(II: 0.4, I: 31)

###

protocol: Cmax in dog at 1 mg/kg, po
Assay type: ADME, organism-based, Canis lupus familiaris
Set-up: dose 1 mg/kg, route oral
experimentalSetup: in vivo
quantityMeasured: Cmax (ng/mL)
Write the answer as a number in ng/mL, unit excluded.

The compound listed as CCCC[C@H]1CN(CC2CCOCC2)C(=O)OC12CCN(C1(C)CCN(C(=O)c3c(C)ncnc3C)CC1)CC2 has a reported Cmax of 225
